# system_name: UniProt:P00533
# Sequence (P00533 whole entry): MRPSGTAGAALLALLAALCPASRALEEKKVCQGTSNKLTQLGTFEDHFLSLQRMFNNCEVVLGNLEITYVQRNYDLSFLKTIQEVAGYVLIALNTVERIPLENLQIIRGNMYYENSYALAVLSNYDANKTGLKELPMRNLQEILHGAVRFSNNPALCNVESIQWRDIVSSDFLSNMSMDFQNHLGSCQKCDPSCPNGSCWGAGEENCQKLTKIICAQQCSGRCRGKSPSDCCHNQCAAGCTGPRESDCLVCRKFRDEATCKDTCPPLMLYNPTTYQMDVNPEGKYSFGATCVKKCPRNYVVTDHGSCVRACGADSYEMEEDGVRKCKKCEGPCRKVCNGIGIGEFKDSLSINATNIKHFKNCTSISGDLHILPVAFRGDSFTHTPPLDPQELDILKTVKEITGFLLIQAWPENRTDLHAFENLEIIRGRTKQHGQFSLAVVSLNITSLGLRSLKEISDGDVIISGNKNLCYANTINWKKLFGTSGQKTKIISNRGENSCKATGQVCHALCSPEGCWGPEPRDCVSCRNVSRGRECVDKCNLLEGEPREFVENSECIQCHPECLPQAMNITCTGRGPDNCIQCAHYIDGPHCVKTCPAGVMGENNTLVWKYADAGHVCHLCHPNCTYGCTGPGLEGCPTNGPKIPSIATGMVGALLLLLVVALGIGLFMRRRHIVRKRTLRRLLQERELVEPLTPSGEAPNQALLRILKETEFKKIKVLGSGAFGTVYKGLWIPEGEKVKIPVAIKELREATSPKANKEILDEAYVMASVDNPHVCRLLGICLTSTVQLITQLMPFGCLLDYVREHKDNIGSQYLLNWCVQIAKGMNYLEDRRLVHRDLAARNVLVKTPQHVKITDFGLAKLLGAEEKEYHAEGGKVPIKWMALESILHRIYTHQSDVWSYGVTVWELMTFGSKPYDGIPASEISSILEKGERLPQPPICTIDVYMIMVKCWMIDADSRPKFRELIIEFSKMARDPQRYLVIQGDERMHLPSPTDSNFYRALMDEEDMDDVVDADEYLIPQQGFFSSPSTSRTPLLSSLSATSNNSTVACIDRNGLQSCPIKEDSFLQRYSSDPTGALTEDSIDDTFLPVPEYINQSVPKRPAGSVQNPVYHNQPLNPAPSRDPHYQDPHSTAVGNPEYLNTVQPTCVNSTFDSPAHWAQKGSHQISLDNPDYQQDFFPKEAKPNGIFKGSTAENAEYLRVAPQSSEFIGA
Overview of recorded IC50 for various compounds
Express your answer in µM, writing the number without its unit.

1) CN(C)c1cccc2c(S(=O)(=O)NCCN=NNc3ccc4ncnc(Nc5cccc(Cl)c5)c4c3)cccc12 = 1.4

Next, consider the following compound.
Qu. Form field: IC50 recorded for CN(CCN=NNc1ccc2ncnc(Nc3cccc(Cl)c3)c2c1)CCNS(=O)(=O)c1cccc2c(N(C)C)cccc12 with UniProt:P00533 (enter value)
Ans. 0.6

* * *

# assay_summary: Stability in serum assessed as half life by UV spectrophotometry
# Type: ADME, cell-free
Overview of recorded half-life for various compounds

1. CN(C)CCN/N=N/c1ccc2ncnc(Nc3cccc(Cl)c3)c2c1 = 108 min
2. CN(C)c1cccc2c(S(=O)(=O)NCCN=NNc3ccc4ncnc(Nc5cccc(Cl)c5)c4c3)cccc12 = 4.96 min

Next, consider the following compound.
Qu. half-life lookup needed for CN(CCN=NNc1ccc2ncnc(Nc3cccc(Cl)c3)c2c1)CCNS(=O)(=O)c1cccc2c(N(C)C)cccc12 , thanks.
Ans. 21.7 min
